- Tested System: ATP-sensitive inward rectifier potassium channel 1 (Homo sapiens)
- Run Description: ROMK potassium channel modulators, primary screen, cell-based, thallium flux, MLSMR library (AID 1918);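 further: B-score of the F/F0 ratio slope over 7 to 12 s after thallium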
- Test Conditions: Tet-inducible ROMK, thallium flux fluorescence; at 10 µM; actives lie on both sides
Among all 130,000 compounds or so, about 2,500 (1.9%) were called active. This is one part of a sample in which actives are shown more often than they occur.
Catalogue of molecules with associated B-score
Property Label: B-score

Molecule: O=C(CCC(=O)OCc1ccc(Cl)cc1)Nc1ccccc1
Reported: 1.21
//
Molecule: Cc1ccc(-c2csc(NNC(=O)c3ccccc3)n2)cc1
Reported: -0.0341
//
Molecule: Cc1ccc(N(C(=O)c2ccc(S(=O)(=O)N(C)C)cc2)C2C=CS(=O)(=O)C2)cc1 (configuration not stated)
Reported: -0.406
//
Molecule: Cn1c(CC(=O)Nc2ccccc2)nnc1SCC(=O)c1ccccc1
Reported: 0.607
//
Molecule: N#C/C(C(=S)Nc1ccccc1)=C1/NN=C(N2CCOCC2)N1c1ccccc1
Reported: 0.219
//
Molecule: O=C1C2C3C=CC(C3)C2C(=O)N1c1ccc(-c2nc3ccccc3c(=O)o2)cc1 (configuration not stated)
Reported: -0.106
//
Molecule: CCC(C)NC(=O)Cn1nc(C(F)(F)F)c2c1CCC2 (configuration not stated)
Reported: -0.0332
